These measurements were taken from patent US12577247B2.

TARGET_DESC: A2B receptor (Homo sapiens, UniProt P29275)
Sequence (P29275 1-332): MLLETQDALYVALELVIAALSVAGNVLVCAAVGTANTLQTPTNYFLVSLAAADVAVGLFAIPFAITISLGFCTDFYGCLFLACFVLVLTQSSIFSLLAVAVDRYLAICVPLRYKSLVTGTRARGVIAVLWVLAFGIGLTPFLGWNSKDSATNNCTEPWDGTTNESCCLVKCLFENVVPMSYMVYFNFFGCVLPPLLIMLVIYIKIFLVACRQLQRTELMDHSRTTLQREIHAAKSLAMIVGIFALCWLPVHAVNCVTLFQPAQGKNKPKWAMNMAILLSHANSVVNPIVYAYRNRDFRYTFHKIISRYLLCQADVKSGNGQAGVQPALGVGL
ASSAY_DETAILS: A2bR antagonism IC50, cAMP TR-FRET (Lance Ultra) in HEK-293 cells, NECA as agonist
Type: cell-based
Parameters: host or cells: HEK-293
CONDITIONS: HEK-293 cells expressing A2B receptor; agonist NECA 30 nM (EC90); inhibition of cAMP
# log10(IC50) values compiled below
MEASUREMENT_LABEL: log10(IC50) (log10 of the value in nM)

MOLECULE: CCc1c(C)nn2c(N)c(C#N)c(N[C@@H](C)c3ccccn3)nc12 [Example 4]
TARGET_DESC: A2B receptor (Homo sapiens, UniProt P29275)
log10(IC50): 3.14

MOLECULE: CCc1c(C)nn2c(N)c(C#N)c(NCCc3ccn(CCO)n3)nc12 [Example 54]
TARGET_DESC: A2B receptor (Homo sapiens, UniProt P29275)
log10(IC50): 0.70

MOLECULE: Cc1nn2c(N)c(C#N)c(NCCc3cccc(C(C)(C)CO)n3)nc2c1C [Example 53]
TARGET_DESC: A2B receptor (Homo sapiens, UniProt P29275)
log10(IC50): 1.43

MOLECULE: Cc1nn2c(N)c(C#N)c(NCCc3ccn(C4(CO)CC4)n3)nc2c1Cl [Example 37]
TARGET_DESC: A2B receptor (Homo sapiens, UniProt P29275)
log10(IC50): 0.85

MOLECULE: Cc1nn2c(N)c(C#N)c(NCCc3cccc(CO)n3)nc2c1Cl [Example 33]
TARGET_DESC: A2B receptor (Homo sapiens, UniProt P29275)
log10(IC50): -0.01

MOLECULE: Cc1cccc(CC(C)Nc2nc3c(C)c(C)nn3c(N)c2C#N)n1 (single isomer, unassigned) [Example 14]
TARGET_DESC: A2B receptor (Homo sapiens, UniProt P29275)
log10(IC50): 0.85

MOLECULE: CCc1c(C)nn2c(N)c(C#N)c(NCCc3cccc(C(C)(C)CO)n3)nc12 [Example 52]
TARGET_DESC: A2B receptor (Homo sapiens, UniProt P29275)
log10(IC50): 1.47

MOLECULE: CCc1cnn2c(N)c(C#N)c(NCCc3cc(C)n(C4(CO)CC4)n3)nc12 [Example 80]
TARGET_DESC: A2B receptor (Homo sapiens, UniProt P29275)
log10(IC50): 1.08

MOLECULE: CCc1c(C)nn2c(N)c(C#N)c(NCCc3ccn(CC4(CO)CC4)n3)nc12 [Example 63]
TARGET_DESC: A2B receptor (Homo sapiens, UniProt P29275)
log10(IC50): 0.86

MOLECULE: CCc1c(C(F)F)nn2c(N)c(C#N)c(NCCc3ccn(C4(CO)CC4)n3)nc12 [Example 58]
TARGET_DESC: A2B receptor (Homo sapiens, UniProt P29275)
log10(IC50): 0.67

MOLECULE: CCc1c(C)nn2c(N)c(C#N)c(NCCc3ccn(C4CCC4CO)n3)nc12 (racemic) [Example 77]
TARGET_DESC: A2B receptor (Homo sapiens, UniProt P29275)
log10(IC50): 0.30

MOLECULE: Cc1nn2c(N)c(C#N)c(NCCc3ccc(F)cn3)nc2c1C [Example 11]
TARGET_DESC: A2B receptor (Homo sapiens, UniProt P29275)
log10(IC50): 1.63

* * *

TARGET_DESC: A2A receptor (Homo sapiens)
Construct: host or cells: HEK-293
Sequence (P29274 whole entry): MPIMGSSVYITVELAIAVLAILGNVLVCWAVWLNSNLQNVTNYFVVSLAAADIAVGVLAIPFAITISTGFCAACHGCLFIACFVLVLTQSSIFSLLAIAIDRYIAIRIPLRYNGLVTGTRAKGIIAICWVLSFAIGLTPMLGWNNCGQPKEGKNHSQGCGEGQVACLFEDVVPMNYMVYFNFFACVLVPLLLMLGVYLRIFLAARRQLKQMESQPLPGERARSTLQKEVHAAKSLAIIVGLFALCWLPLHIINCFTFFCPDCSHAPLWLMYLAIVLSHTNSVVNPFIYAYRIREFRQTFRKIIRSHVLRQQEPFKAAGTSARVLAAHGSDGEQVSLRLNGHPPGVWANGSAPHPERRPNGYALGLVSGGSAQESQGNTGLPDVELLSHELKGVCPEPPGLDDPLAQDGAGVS
ASSAY_DETAILS: A2aR antagonism IC50, cAMP TR-FRET in HEK-293 cells, high concentration of adenosine (30 μM);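 further: compounds added 10 min before adenosine, then 30 min stimulation at room temperature in buffer with 100 µM rolipram and 30 µM EHNA, signal read 1 h after detection reagents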
Assay type: cell-based
CONDITIONS: HEK-293 cells expressing A2A receptor; agonist adenosine 30 μM; 2% HSA; inhibition of cAMP; read-out: A2AR IC50 (nM) (@30 μM Adenosine)

COMPOUND: CCc1c(C)nn2c(N)c(C#N)c(NCCc3ccn(C4COCC4CO)n3)nc12 (single isomer, unassigned; (+)) [Example 122a]
UNITS_OF_MEASURE: nM
IC50: 289
--
COMPOUND: CCc1c(C)nn2c(N)c(C#N)c(NCCc3cccc(C(O)C(F)(F)F)n3)nc12 (stereo not shown)
UNITS_OF_MEASURE: nM
IC50: 1310
--
COMPOUND: CCc1c(C)nn2c(N)c(C#N)c(NCCc3ccn(C4CCC4CO)n3)nc12 (racemic) [Example 77]
UNITS_OF_MEASURE: nM
IC50: 81
--
COMPOUND: Cc1nn2c(N)c(C#N)c(NCCc3ccn(C4CCC4CN)n3)nc2c1Cl (stereo not shown)
UNITS_OF_MEASURE: nM
IC50: 112
--
COMPOUND: CCc1c(C)nn2c(N)c(C#N)c(NCCc3cc(C)n(C4COCC4CO)n3)nc12 (single isomer, unassigned; (+)) [Example 168]
UNITS_OF_MEASURE: nM
IC50: 90
--
COMPOUND: CCc1c(C)nn2c(N)c(C#N)c(NCCc3ccn(C4COCC4CO)n3)nc12 (single isomer, unassigned; (-)) [Example 122b]
UNITS_OF_MEASURE: nM
IC50: 130
--
COMPOUND: Cc1nn2c(N)c(C#N)c(NCCc3ccn(C4COCC4CO)n3)nc2c1C (single isomer, unassigned; (-)) [Example 133b]
UNITS_OF_MEASURE: nM
IC50: 136
--
COMPOUND: Cc1nn2c(N)c(C#N)c(NCCc3ccn(C4CCCC4CO)n3)nc2c1Cl (stereo not shown)
UNITS_OF_MEASURE: nM
IC50: 96
--
COMPOUND: CCc1c(C)nn2c(N)c(C#N)c(NCCc3cccn(CCOC)c3=O)nc12
UNITS_OF_MEASURE: nM
IC50: 224
--
COMPOUND: CCc1c(C)nn2c(N)c(C#N)c(NCCc3ccn(C4(CNC(C)=O)CC4)n3)nc12
UNITS_OF_MEASURE: nM
IC50: 363
--
COMPOUND: CCc1c(C)nn2c(N)c(C#N)c(NCCc3cccn(C)c3=O)nc12
UNITS_OF_MEASURE: nM
IC50: 286
--
COMPOUND: CCc1c(C)nn2c(N)c(C#N)c(NCCc3cccn(CCCN)c3=O)nc12
UNITS_OF_MEASURE: nM
IC50: 506
--
COMPOUND: CCc1c(C)nn2c(N)c(C#N)c(NCCc3ccn(C(C)CO)n3)nc12 (stereo not shown)
UNITS_OF_MEASURE: nM
IC50: 63
--
COMPOUND: CCc1c(C)nn2c(N)c(C#N)c(NCCc3ccn(C4(CCN)CC4)n3)nc12
UNITS_OF_MEASURE: nM
IC50: 161
--
COMPOUND: CCCc1c(C)nn2c(N)c(C#N)c(NCCc3ccn(C4CCC4CO)n3)nc12 (single isomer, unassigned; (-)) [Example 165b]
UNITS_OF_MEASURE: nM
IC50: 1540
--
COMPOUND: CCc1c(C(F)F)nn2c(N)c(C#N)c(NCCc3ccn(C(C)(C)CO)n3)nc12
UNITS_OF_MEASURE: nM
IC50: 7660
--
COMPOUND: CCc1c(C)nn2c(N)c(C#N)c(NCCc3ccn(CC4(CO)CC4)n3)nc12
UNITS_OF_MEASURE: nM
IC50: 810
--
COMPOUND: CCc1c(C)nn2c(N)c(C#N)c(NCCc3cccn(CCC[S+](C)[O-])c3=O)nc12 (single isomer, unassigned; (+)) [Example 154b]
UNITS_OF_MEASURE: nM
IC50: 1010
--
COMPOUND: Cc1nn2c(N)c(C#N)c(NCCc3ccn(C4CCC4CO)n3)nc2c1C (single isomer, unassigned; (+)) [Example 104a]
UNITS_OF_MEASURE: nM
IC50: 88
--
COMPOUND: CCCc1c(C)nn2c(N)c(C#N)c(NCCc3ccn(C4(CO)CC4)n3)nc12
UNITS_OF_MEASURE: nM
IC50: 805
--
COMPOUND: CCc1c(C(F)F)nn2c(N)c(C#N)c(NCCc3ccn(C4CCC4CO)n3)nc12 (stereo not shown)
UNITS_OF_MEASURE: nM
IC50: 804
--
COMPOUND: CCc1cnn2c(N)c(C#N)c(NCCc3ccn(C4(CO)CC4)n3)nc12
UNITS_OF_MEASURE: nM
IC50: 158
